target: Prostaglandin E2 receptor EP2 subtype (Homo sapiens) (UniProt P43116); experiment: EP2 receptor modulators, dose response, cell-based, human EP2, PGE2 EC50 shift (AID 1421); settings: EP2-expressing cells, PGE2 EC50 shift by compound; measured here: PGE2 EC50 at 6.7 uM compound
Sequence (P43116 whole entry, looked up): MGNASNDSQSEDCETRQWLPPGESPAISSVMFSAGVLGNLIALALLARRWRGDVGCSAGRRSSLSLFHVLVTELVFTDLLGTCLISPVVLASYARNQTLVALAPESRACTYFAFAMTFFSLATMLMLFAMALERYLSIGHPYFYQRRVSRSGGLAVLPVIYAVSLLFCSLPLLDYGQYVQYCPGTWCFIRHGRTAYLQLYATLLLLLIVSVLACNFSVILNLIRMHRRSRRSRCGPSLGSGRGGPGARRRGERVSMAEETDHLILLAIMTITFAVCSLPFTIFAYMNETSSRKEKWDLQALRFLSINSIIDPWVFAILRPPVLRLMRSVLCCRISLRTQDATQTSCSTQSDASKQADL
value type: PGE2 EC50 with compound
Output should be the measured figure followed by the unit it is expressed in.

CCOC(=O)C1=C(N)OC2=C(C(=O)CC(C)(C)C2)C1c1ccc(CC)s1 (stereo unspecified)    0.96 nM

Asked: Under Prostaglandin E2 receptor EP2 subtype (Homo sapiens) (UniProt P43116): PGE2 EC50 with compound value of O=c1cc(N2CCCCC2)c(-c2ccccc2)nn1Cc1ccc(F)cc1 ?
Given back: 2.5 nM

Asked: Under Prostaglandin E2 receptor EP2 subtype (Homo sapiens) (UniProt P43116): PGE2 EC50 with compound value of CCOC(=O)c1ccccc1NC(=O)CSc1ncc(C(=O)OCC)c(N)n1 ?
Given back: 0.96 nM

Asked: Under Prostaglandin E2 receptor EP2 subtype (Homo sapiens) (UniProt P43116): PGE2 EC50 with compound value of O=c1[nH]c(CSc2ncc(-c3ccc(F)cc3)n2Cc2ccco2)nc2ccccc12 ?
Given back: 0.71 nM

Asked: Under Prostaglandin E2 receptor EP2 subtype (Homo sapiens) (UniProt P43116): PGE2 EC50 with compound value of Cc1ccc(-c2csc(N(CC3CCCO3)C(=O)c3ccco3)n2)cc1 (stereo unspecified) ?
Given back: 0.87 nM

Asked: Under Prostaglandin E2 receptor EP2 subtype (Homo sapiens) (UniProt P43116): PGE2 EC50 with compound value of c1ccc(-c2noc(CN3CCN(C(c4ccccc4)c4ccccc4)CC3)n2)cc1 ?
Given back: 0.73 nM

Asked: Under Prostaglandin E2 receptor EP2 subtype (Homo sapiens) (UniProt P43116): PGE2 EC50 with compound value of O=C(c1ccccc1)C1CN(Cc2ccccc2)CCC1(O)c1ccccc1 (stereo unspecified) ?
Given back: 2.61 nM

Asked: Under Prostaglandin E2 receptor EP2 subtype (Homo sapiens) (UniProt P43116): PGE2 EC50 with compound value of Cc1cc(C)c(N=C2CCCN2Cc2ccccc2)c(C#N)c1 ?
Given back: 1.39 nM

Asked: Under Prostaglandin E2 receptor EP2 subtype (Homo sapiens) (UniProt P43116): PGE2 EC50 with compound value of O=C(O)c1cc2cc(F)ccc2[nH]1 ?
Given back: 0.93 nM

Asked: Under Prostaglandin E2 receptor EP2 subtype (Homo sapiens) (UniProt P43116): PGE2 EC50 with compound value of CC1=CC2C(CC1=O)C(C)=CCC2C(C)C (stereo unspecified) ?
Given back: 0.86 nM

Asked: Under Prostaglandin E2 receptor EP2 subtype (Homo sapiens) (UniProt P43116): PGE2 EC50 with compound value of CCOC(=O)c1c(NC(=O)CN2CCCCC2)sc2c1CCN(C(=O)OCC)C2 ?
Given back: 0.9 nM

Asked: Under Prostaglandin E2 receptor EP2 subtype (Homo sapiens) (UniProt P43116): PGE2 EC50 with compound value of CC1CCN(c2nc3c(c(=O)[nH]c(=O)n3C)n2CCCc2ccccc2)CC1 ?
Given back: 1.05 nM

Asked: Under Prostaglandin E2 receptor EP2 subtype (Homo sapiens) (UniProt P43116): PGE2 EC50 with compound value of CC1Cc2ccccc2N1C(=O)CSc1nnc(Cc2ccccc2)n1CCc1ccccc1 (stereo unspecified) ?
Given back: 1.14 nM

Asked: Under Prostaglandin E2 receptor EP2 subtype (Homo sapiens) (UniProt P43116): PGE2 EC50 with compound value of Cc1ccccc1OCc1nc2ccccc2c(=O)n1/N=C/c1ccco1 ?
Given back: 1.02 nM

Asked: Under Prostaglandin E2 receptor EP2 subtype (Homo sapiens) (UniProt P43116): PGE2 EC50 with compound value of Cc1ccc(CN2C(=O)CN=C(c3ccccc3)c3ccccc32)cc1 ?
Given back: 1.23 nM

Asked: Under Prostaglandin E2 receptor EP2 subtype (Homo sapiens) (UniProt P43116): PGE2 EC50 with compound value of CN(/N=C\c1ccc(O)c(O)c1)c1nc(-c2ccccc2)cc(-c2ccccc2)n1 ?
Given back: 1.22 nM
